# Measured target: T1, extracellular domain (ECD) of human IGSF11 (VSIG3), biotinylated (human, UniProt Q5DX21 23-241, biotinylated (site not stated))
# T1 construct: also called human IGSF11 protein
# T1 sequence: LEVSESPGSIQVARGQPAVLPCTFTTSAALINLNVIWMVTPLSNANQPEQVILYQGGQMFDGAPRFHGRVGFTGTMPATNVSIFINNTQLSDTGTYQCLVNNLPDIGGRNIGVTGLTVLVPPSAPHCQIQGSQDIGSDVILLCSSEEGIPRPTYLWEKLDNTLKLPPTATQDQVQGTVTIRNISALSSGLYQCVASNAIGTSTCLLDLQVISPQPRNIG
# Assay overview: ELISA, scFv; RFU grade (*** >1.0, ** 0.5-1.0, * 0.1-0.5)
binders and their reported relative fluorescent units (RFU), ELISA

[
  {
    "Binder": "A-024 (scFv format) (scFv, V domains shown) VH: QMQLVQSGAEVKKPGSSVKVSCKASGGTFSSYAISWVRQAPGQGLEWMGWISAYNGNTNYAQKLQGRVTMTTDTSTSTAYMELRSLRSDDTAVYYCASLGSYGYTGAFDIWGQGTMATVSS VL: QSALTQPASVSGSPGQSITISCTGTSSDVGGYNYVSWYQQHPGKAPKLMIYEVSNRPSGVSNRFSGSKSGNTASLTISGLQAEDEADYYCSSYTSSSTLVVFGGGTKLTVL",
    "relative fluorescent units (RFU), ELISA": "0.5 to 1 rfu"
  },
  {
    "Binder": "A-005 (scFv format) (scFv, V domains shown, scFv) VH: EVQLVESGGGLIQPGGSLRLSCAASGFTVSSNYMSWVRQAPGKGLEWVSVIYSGGSTYYADSVKGRFTISRDNSKNTLYLQMNSLRAEDTAVYYCARGNPYYYGDLQVNFDYWGQGTLVTVSS VL: QAVVTQEPSLTVSPGETVTLTCASSTGAVTSGYYPNWFQQRPGQAPRALIYSTSNKDSWTPARFSGSLLGGKAALTLSGVQPEDEAEYYCLLYYGGAWVFGGGTKLTVL",
    "relative fluorescent units (RFU), ELISA": "0.5 to 1 rfu"
  }
]

Below: the item to evaluate.
Answer with the recorded relative fluorescent units (RFU), ELISA of A-002 (scFv format) (scFv, V domains shown, scFv) VH: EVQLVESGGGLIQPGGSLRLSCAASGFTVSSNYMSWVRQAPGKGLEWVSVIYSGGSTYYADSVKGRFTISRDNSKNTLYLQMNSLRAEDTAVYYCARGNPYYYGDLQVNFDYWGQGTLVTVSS VL: QAVVTQEPSLTVSPGGTVTPTCGSSTGAVTSGNLPNWFQQKPGQAPRALIYSTSNKHSWTPARISGSLLGGKAALTLSGVQPEDEAEYYCLLYYGGAWVFGGGTKLTVL only.
0.5 to 1 rfu
